Each entry below carries its recorded pKi.
# TESTED_SYSTEM: MMP-2 (Homo sapiens, UniProt P08253)
# Sequence (P08253 110-660): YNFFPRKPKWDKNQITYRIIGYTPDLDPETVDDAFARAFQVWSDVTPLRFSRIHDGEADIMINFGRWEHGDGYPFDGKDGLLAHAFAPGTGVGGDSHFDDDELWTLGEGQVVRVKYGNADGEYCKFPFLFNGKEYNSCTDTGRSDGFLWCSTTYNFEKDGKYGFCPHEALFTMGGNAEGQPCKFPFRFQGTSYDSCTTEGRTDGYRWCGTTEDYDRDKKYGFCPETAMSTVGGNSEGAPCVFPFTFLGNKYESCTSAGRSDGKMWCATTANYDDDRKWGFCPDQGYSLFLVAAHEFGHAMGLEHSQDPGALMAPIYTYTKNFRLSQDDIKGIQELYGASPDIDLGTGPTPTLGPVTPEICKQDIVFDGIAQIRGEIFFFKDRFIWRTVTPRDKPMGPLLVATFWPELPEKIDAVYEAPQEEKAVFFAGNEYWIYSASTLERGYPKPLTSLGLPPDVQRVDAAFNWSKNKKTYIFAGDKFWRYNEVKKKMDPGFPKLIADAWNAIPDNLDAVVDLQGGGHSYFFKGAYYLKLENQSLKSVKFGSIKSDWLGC
# EXPERIMENT_SUMMARY: Automated MMP profiling assay (P218 quenched fluorescence), MMP-2
# Assay type: biochemical
# EXPERIMENTAL_CONTEXT: read-out: MMP-2 Ki
pKi: −log10 of the molar value.
MEASURED_ATTRIBUTE: pKi

1) O=C(CC(CCn1nnc2ccccc2c1=O)C(=O)O)c1ccc(-c2ccc(Cl)cc2)cc1 (racemic): 8.92
2) CCOc1ccc(-c2ccc(C(=O)CC(CCN3C(=O)c4ccccc4C3=O)C(=O)O)cc2)cc1 (racemic): 8.96
